FYI, the data here is from the METLIN SMRT retention time set (Domingo-Almenara et al. 2019).

RP-LC retention time values, listed per item
Test: gradient 5% acetonitrile 3 min, to 50% in 2 min, to 85% in 15 min, held 3 min, 100 µL/min
Settings: column: Zorbax Extend-C18 2.1 x 50 mm; eluents: water / acetonitrile, 0.1% formic acid
Lab book: enter the figure in s, no units written.

Solved entries (count: 6):
1. Cc1noc(C)c1-c1ccc(S(=O)(=O)N2CCOCC2)cc1    807
2. Cn1c(=O)oc2cc(-c3noc(CNC(=O)Cc4ccc(Cl)cc4)n3)ccc21    807
3. COc1cccc(-c2ccc(=O)n(CCc3nc(-c4ccc5c(c4)OCO5)no3)n2)c1    804
4. O=c1c2nc(-c3ccc(F)cc3)cn2ccn1-c1ccc(F)cc1    795
5. COc1ccc(NC(=O)c2[nH]c3cc(C)sc3c2CN(C)C)cc1F    680
6. Cc1ccc2nc(C(=O)NCc3cccc(Cl)c3)cn2c1    718

Ask: Any idea what its RP-LC retention time is? The molecule is CCc1c(C(=O)O)nnn1-c1ccc(Cl)c(C)c1
Reply: 809

Ask: Any idea what its RP-LC retention time is? The molecule is Cn1c(=O)c2ccn(CC(=O)Nc3ccc(F)cc3Cl)c2n(C)c1=O
Reply: 695

Ask: Any idea what its RP-LC retention time is? The molecule is COC(=O)c1c(C)[nH]c(C(=O)N2CCCC(C(=O)NCCCc3ccccc3)C2)c1C (centres undefined)
Reply: 800

---

Assay: gradient 5% acetonitrile 3 min, to 50% in 2 min, to 85% in 15 min, held 3 min, 100 µL/min
Settings: column: Zorbax Extend-C18 2.1 x 50 mm; eluents: water / acetonitrile, 0.1% formic acid
RP-LC retention time values, listed per item
Lab book: enter the figure in s, no units written.

Solved entries (count: 5):
1) CCCNC(=O)CSc1ccc(-n2nc3c(c2C)CCC3)nn1    865
2) O=C(Cc1cccs1)N1CCC(Nc2ncnc3c2CCC3)CC1    590
3) O=C(CCCn1nnc2cc(S(=O)(=O)N3CCCC3)ccc21)N1CCCc2ccccc21    873
4) Cc1ccc(CNC(=O)Cn2nc(C)c3nn(-c4ccccc4)c(-n4cccc4)c3c2=O)o1    946
5) CCC(=O)N(C1CCOCC1)C1CCN(S(=O)(=O)c2cccc(Cl)c2)CC1    872

Ask: Any idea what its RP-LC retention time is? The compound is Cc1ccc(F)cc1S(=O)(=O)N1CCc2c(c(-c3nnc(-c4ccccc4)o3)nn2C)C1
Reply: 846

Ask: Any idea what its RP-LC retention time is? The compound is CCc1ccccc1S(=O)(=O)N1CCC(n2cnnc2C(C)C)CC1
Reply: 784

---

Assay: gradient 5% acetonitrile 3 min, to 50% in 2 min, to 85% in 15 min, held 3 min, 100 µL/min
Details: column: Zorbax Extend-C18 2.1 x 50 mm; eluents: water / acetonitrile, 0.1% formic acid
Assign label 1 whenever RP-LC retention time does not fall below 800 s; assign label 0 whenever it does.

Ask: # check: RP-LC retention time of CCCCc1ccc(NC(=O)C2CCN(C(=O)C(C)(C)C)CC2)cc1 is greater than or equal to 800 s
Reply: label 1

---

RP-LC retention time values, listed per item
Assay: gradient 5% acetonitrile 3 min, to 50% in 2 min, to 85% in 15 min, held 3 min, 100 µL/min
Settings: column: Zorbax Extend-C18 2.1 x 50 mm; eluents: water / acetonitrile, 0.1% formic acid
Lab book: enter the figure in s, no units written.

1. CC1=C(c2ccc(C)c(C)c2)S(=O)(=O)N=C1N1CCCN(C(=O)c2cccnc2)CC1    788
2. CCC(=O)N1CCC(C(=O)Nc2ccc(S(=O)(=O)N3CCCC3)cc2)CC1    697
3. O=C(NC1CCCC1)C1c2cccn2CC(=O)N1Cc1ccc(Cl)cc1 (stereo unspecified)    905

Ask: Any idea what its RP-LC retention time is? The molecule is CC(C)(C)c1ccc(-c2noc(CN3C(=O)COc4cc(Cl)ccc43)n2)cc1
Reply: 1360

Ask: Any idea what its RP-LC retention time is? The molecule is CSc1ccc(CNC(=O)C2CCCN(c3nn4c(=O)c5c(nc4s3)CCCC5)C2)cc1 (stereo unspecified)
Reply: 792

Ask: Any idea what its RP-LC retention time is? The molecule is Cc1noc(C2(NC(=O)c3cc(F)cc(F)c3)CCCCC2)n1
Reply: 916
